species: Homo sapiens; test: Concentration required for maximal in vitro inhibition of aggregation of human platelet rich plasma (hPRP); format: functional
pIC50: −log10 of the molar value.
measurement_name: pIC50

Below are worked cases with known answers.
- molecule: "CCCCNC(=N)c1ccc(C2=NOC(CC(=O)NCCC(=O)O)C2)cc1 (configuration not stated)"
  pIC50: 7.70
- molecule: "CCNC(=N)c1ccc(C2=NO[C@@H](CC(=O)NC[C@H](NS(=O)(=O)c3ccccc3C)C(=O)O)C2)cc1"
  pIC50: 7.37
- molecule: "CCCCNC(=N)c1ccc(C2=NO[C@@H](CC(=O)NC[C@H](NC(=O)OCCCC)C(=O)O)C2)cc1"
  pIC50: 7.21
- molecule: "N/C(=N/Cc1cccc(F)c1)c1ccc(C2=NOC(CC(=O)NCCC(=O)O)C2)cc1 (configuration not stated)"
  pIC50: 7.92
- molecule: "N/C(=N/Cc1ccccc1)c1ccc(C2=NO[C@@H](CC(=O)NCCC(=O)O)C2)cc1"
  pIC50: 7.06
- molecule: "CCCCOC(=O)N[C@@H](CNC(=O)C[C@H]1CC(c2ccc(C(=N)NCC)cc2)=NO1)C(=O)O"
  pIC50: 7.09
- molecule: "N=C(N)c1ccc(C2=NO[C@@H](CC(=O)NCCC(=O)O)C2)cc1"
  pIC50: 7.22
- molecule: "COc1ccccc1CNC(=N)c1ccc(C2=NO[C@@H](CC(=O)NC[C@H](NS(=O)(=O)c3ccccc3C)C(=O)O)C2)cc1"
  pIC50: 7.40

I = CCNC(=N)c1ccc(C2=NO[C@@H](CC(=O)NC[C@H](NS(=O)(=O)c3cccc(C)c3)C(=O)O)C2)cc1
II = CCCCNC(=N)c1ccc(C2=NO[C@@H](CC(=O)NC[C@H](NS(=O)(=O)c3ccccc3C)C(=O)O)C2)cc1
III = CCCNC(=N)c1ccc(C2=NOC(CC(=O)NCCC(=O)O)C2)cc1 (configuration not stated)
IV = COc1ccccc1CNC(=N)c1ccc(C2=NOC(CC(=O)NCCC(=O)O)C2)cc1 (configuration not stated)
Query block: Hey, quick one: sort these by pIC50, low to high? Sort and list the labels as requested.
Result block: III, I, IV, II

###

organism: Homo sapiens; assay: Concentration required for maximal in vitro inhibition of aggregation of human platelet rich plasma (hPRP); format: functional
pIC50: −log10 of the molar value.
measurement_name: pIC50

# count of solved cases: 5
- molecule: "CCCCCNC(=N)c1ccc(C2=NOC(CC(=O)NCCC(=O)O)C2)cc1 (stereo not drawn)"
  pIC50: 6.52
- molecule: "COc1ccccc1CNC(=N)c1ccc(C2=NO[C@@H](CC(=O)NC[C@H](NS(=O)(=O)c3c(C)noc3C)C(=O)O)C2)cc1"
  pIC50: 7.26
- molecule: "N=C(N)c1ccc(C2=NOC(CC(=O)NCCC(=O)O)C2)cc1 (stereo not drawn)"
  pIC50: 6.62
- molecule: "Cc1noc(C)c1S(=O)(=O)N[C@@H](CNC(=O)C[C@H]1CC(c2ccc(C(=N)NCc3cccc(F)c3)cc2)=NO1)C(=O)O"
  pIC50: 7.26
- molecule: "Cc1ccccc1S(=O)(=O)N[C@@H](CNC(=O)C[C@H]1CC(c2ccc(C(=N)N)cc2)=NO1)C(=O)O"
  pIC50: 7.27

A = Cc1cccc(S(=O)(=O)N[C@@H](CNC(=O)C[C@H]2CC(c3ccc(C(=N)N)cc3)=NO2)C(=O)O)c1
B = N/C(=N/Cc1ccccc1)c1ccc(C2=NOC(CC(=O)NCCC(=O)O)C2)cc1 (stereo not drawn)
C = CC(C)CCNC(=N)c1ccc(C2=NOC(CC(=O)NCCC(=O)O)C2)cc1 (stereo not drawn)
Query block: List from greatest to least pIC50. The reply should contain the labels ordered as requested.
Result block: A, B, C
(A: 7.30, B: 6.70, C: 5.89)

Origin of the recorded values: ChEMBL document CHEMBL1133917
